Reference for the values: paper PMC8228075

- assayed-system: Alpha-2A adrenergic receptor (hα2AAR) (Homo sapiens, UniProt P08913)
- Sequence (P08913 whole entry): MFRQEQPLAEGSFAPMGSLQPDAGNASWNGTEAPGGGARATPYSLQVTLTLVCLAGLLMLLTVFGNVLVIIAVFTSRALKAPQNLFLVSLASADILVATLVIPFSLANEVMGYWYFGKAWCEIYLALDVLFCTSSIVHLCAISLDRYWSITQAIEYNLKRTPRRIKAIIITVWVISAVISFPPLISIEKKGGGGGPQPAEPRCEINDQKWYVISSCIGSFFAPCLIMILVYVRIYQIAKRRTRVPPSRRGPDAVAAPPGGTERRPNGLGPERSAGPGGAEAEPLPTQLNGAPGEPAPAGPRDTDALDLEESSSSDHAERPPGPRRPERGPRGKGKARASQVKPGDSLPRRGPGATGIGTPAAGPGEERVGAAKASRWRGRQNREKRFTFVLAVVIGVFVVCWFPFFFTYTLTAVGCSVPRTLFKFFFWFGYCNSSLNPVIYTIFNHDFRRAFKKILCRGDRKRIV
- measurement-protocol: hα2AAR functional antagonist assay (Ca2+ mobilization, rat basophil leukemia cells)
- condition-parameters: reference antagonist; read-out: Reference Drugs, IC50
endpoint: IC50 (nM)
Just the number please, in nM, no unit attached.

Req: Name the value of IC50 reported for COC1(C2=NCCN2)COc2ccccc2O1 (stereo not shown) [RX-821002, reference compound] when tested on Alpha-2A adrenergic receptor (hα2AAR) (Homo sapiens, UniProt P08913).
Resp: 17

---

- assayed-system: h5-HT1BR (Homo sapiens, UniProt P28222)
- Sequence (P28222 whole entry): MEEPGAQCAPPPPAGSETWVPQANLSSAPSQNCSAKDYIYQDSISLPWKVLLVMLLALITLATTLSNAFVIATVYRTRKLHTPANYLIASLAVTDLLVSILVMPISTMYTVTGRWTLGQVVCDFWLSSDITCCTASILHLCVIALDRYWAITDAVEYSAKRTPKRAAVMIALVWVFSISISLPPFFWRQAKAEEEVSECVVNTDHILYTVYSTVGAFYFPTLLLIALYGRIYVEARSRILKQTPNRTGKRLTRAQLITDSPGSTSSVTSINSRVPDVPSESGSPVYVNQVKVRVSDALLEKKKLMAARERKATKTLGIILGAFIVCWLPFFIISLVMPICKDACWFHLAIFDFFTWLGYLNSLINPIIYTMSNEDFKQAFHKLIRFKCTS
- measurement-protocol: h5-HT1BR functional antagonist assay (cAMP, HTRF, Hela cells)
- Description: The in-house assay protocol and experimental conditions are reported in our previous reports. The functional effect of dieckol and PFF-A was characterized based on their modulation effect on cytosolic Ca^2+ ion mobilization using a fluorimetric detection method or by measuring their effect on cAMP modulation using homogeneous time-resolved fluorescence (HTRF) detection. […]
endpoint: IC50 (nM)
Just the number please, in nM, no unit attached.

Req: Name the value of IC50 reported for CN(C)CCCc1cc(C(=O)Nc2ccc(-c3ccncc3)cc2)ccc1O [GR55562, reference compound] when tested on h5-HT1BR (Homo sapiens, UniProt P28222).
Resp: 23
